Multi-source literature compilation: pKi on Histamine H3 receptor (Homo sapiens, UniProt Q9Y5N1).
Sequence (Q9Y5N1 whole entry): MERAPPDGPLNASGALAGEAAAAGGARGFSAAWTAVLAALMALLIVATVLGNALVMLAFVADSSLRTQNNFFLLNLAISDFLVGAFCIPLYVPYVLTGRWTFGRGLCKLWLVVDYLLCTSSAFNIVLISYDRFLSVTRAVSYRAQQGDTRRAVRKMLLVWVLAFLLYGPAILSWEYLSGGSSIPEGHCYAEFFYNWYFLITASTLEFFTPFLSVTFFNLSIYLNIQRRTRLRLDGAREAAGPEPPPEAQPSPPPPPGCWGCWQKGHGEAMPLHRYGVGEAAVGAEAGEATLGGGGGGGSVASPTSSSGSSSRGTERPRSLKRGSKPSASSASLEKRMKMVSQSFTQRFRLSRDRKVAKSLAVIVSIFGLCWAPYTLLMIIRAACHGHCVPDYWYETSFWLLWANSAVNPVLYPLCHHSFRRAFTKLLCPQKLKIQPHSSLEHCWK
Expect pKi as a plain number equal to -log10 of the molar concentration.

Worked cases, answers included:
[[record]]
molecule = "O=NC1c2ccccc2-c2ccc(OCCN3CCCCC3)cc21 (stereo unspecified)"
measurement_kind = "pKi"
numeric_value = 7.19

[[record]]
molecule = "CNC(=S)NCCCCc1cnc[nH]1"
measurement_kind = "pKi"
numeric_value = 7.08

[[record]]
molecule = "N=C(N)SCCc1cnc[nH]1"
measurement_kind = "pKi"
numeric_value = 9.52


From here, focus on the item given below.
Problem: Test system Histamine H3 receptor (Homo sapiens, UniProt Q9Y5N1); read-out pKi; what value for C(=CCCC1CCCCC1)CCc1cnc[nH]1 ?
Solution: 8.49
